src = patent US20260201064A1

- ASSAYED_SYSTEM: T1, recombinant human ASM protein (human, UniProt P17405 47-630)
- T1 construct: Recombinant human ASM in solution; also called acid sphingomyelinase (ASM) protein
- T1 sequence: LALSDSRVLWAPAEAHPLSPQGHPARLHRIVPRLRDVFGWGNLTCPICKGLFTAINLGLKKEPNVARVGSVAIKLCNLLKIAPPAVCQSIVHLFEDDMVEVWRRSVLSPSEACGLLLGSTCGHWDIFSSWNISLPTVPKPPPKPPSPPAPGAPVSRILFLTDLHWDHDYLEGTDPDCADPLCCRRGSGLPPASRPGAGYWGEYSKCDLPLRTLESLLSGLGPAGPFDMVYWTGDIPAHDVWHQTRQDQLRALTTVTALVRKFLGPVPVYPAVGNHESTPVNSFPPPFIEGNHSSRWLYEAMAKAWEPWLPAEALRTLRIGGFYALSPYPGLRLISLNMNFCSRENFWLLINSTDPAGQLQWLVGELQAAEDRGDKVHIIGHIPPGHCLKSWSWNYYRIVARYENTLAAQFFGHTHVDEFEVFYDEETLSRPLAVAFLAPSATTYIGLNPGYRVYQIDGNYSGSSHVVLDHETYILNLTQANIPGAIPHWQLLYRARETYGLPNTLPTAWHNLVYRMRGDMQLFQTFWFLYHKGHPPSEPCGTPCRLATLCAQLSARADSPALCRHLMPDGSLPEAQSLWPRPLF
- TEST_SUMMARY: BLI (Octet), antibody on AHC sensor
ENDPOINT: kon
Don't forget the unit after the value.

These solved cases illustrate the format of a correct answer.
BINDER	VALUE
#9104a-D5 (antibody, human IgG4 S228P, lambda, V domains shown, VH of #9104v-H19 with VL of #9104v-L64; full-length IgG, lambda) VH: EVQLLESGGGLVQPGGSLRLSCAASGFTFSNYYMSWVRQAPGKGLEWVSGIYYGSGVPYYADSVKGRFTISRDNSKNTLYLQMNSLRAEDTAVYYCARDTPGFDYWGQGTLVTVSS VL: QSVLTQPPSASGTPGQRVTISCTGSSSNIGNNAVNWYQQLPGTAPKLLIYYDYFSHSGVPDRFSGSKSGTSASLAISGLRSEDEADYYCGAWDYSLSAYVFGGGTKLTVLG	261000 M⁻¹ s⁻¹
#9104a-E7 (antibody, human IgG4 S228P, lambda, V domains shown, VH of #9104v-H31 with VL of #9104v-L65; full-length IgG, lambda) VH: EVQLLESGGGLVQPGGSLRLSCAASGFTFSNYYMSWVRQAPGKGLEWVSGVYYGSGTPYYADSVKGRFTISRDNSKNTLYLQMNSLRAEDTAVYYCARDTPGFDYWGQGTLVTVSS VL: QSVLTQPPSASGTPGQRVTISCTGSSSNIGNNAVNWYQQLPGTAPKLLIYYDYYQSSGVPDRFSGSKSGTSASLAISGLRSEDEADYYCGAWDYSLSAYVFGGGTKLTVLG	218000 M⁻¹ s⁻¹

Exercise: Identify measured kon corresponding to #9104a-E8 (antibody, human IgG4 S228P, lambda, V domains shown, VH of #9104v-H33 with VL of #9104v-L65; full-length IgG, lambda) VH: EVQLLESGGGLVQPGGSLRLSCAASGFTFSNYYMSWVRQAPGKGLEWVSGVYYPSGNPYYADSVKGRFTISRDNSKNTLYLQMNSLRAEDTAVYYCARDTPGFDYWGQGTLVTVSS VL: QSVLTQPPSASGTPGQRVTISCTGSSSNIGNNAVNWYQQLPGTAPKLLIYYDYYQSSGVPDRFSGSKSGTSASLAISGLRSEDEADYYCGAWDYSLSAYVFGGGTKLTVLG
Solution: 149000 M⁻¹ s⁻¹
